- Test system: Plasmodium falciparum
- test description: GSK_TCMDC: Inhibition of Plasmodium falciparum 3D7 in whole red blood cells, using parasite LDH activity as an index of growth. Test compounds present at 2uM
- Type: functional
metric: Inhibition (%)
Please reply with the bare figure in % and do not write the unit itself.

# count of solved cases: 3
• CC1CN(Cc2ccccc2)CCN1c1ccc(NC(=O)c2ccc(F)cc2)cc1.O=C(O)C(F)(F)F (centres undefined) = 87
• COC(=O)c1cccc(CNCc2cccc(-c3cccc(-c4nc5cccc(C)c5[nH]4)c3)c2)c1.O=C(O)C(F)(F)F = 100
• CC(C)(CNCc1ccc(F)c(F)c1)c1nc(-c2ccc(Cl)c(O)c2)c(-c2ccncc2)[nH]1.Cl = 100

Q. Using the record for "Cc1cc(N(C)C)nc(Nc2ccc(NC(=O)c3c(F)cccc3F)cc2)n1" , state its measured Inhibition.
A. 94

Q. Assign Inhibition to the following record: "Cc1cccc2nc(-c3ccc(-c4ccc(NC(=O)Nc5ccc(Cl)c(Cl)c5)cc4)cc3)[nH]c12"
A. 100

Q. For "CN(C)CCCNC(=O)c1ccccc1Sc1ccccc1C#N.Cl" , write its Inhibition.
A. 89

Q. Determine from records and report Inhibition for "Cc1cc(C(=O)Nc2ccc(C)c(-c3nc(N(C(=O)c4ccc(F)c(C)c4)C4CCNCC4)nc4c3ccc(=O)n4-c3c(F)cccc3F)c2)ccc1F"
A. 99

Q. Give a short answer stating reported Inhibition for "COc1ccc2nccc([C@@H](O)CN3CCC(NC(=O)c4ccc(Oc5ccccc5)cc4)CC3)c2c1" .
A. 82

Q. Consider the molecule "COc1cc2nc(NCCCO)nc(Nc3ccc(Oc4ccccc4)cc3)c2cc1OC" and give its recorded Inhibition.
A. 100

---

- System: HepG2
- test description: GSK_TCMDC: Percent inhibition of human HepG2 cell line. Test compounds present at 10uM.
- Type: functional
Parameter Inhibition: see the listing below.
Write the numeric value and follow it with the unit.

Here are 5 molecules together with their reported answers.
• COc1cc(CNCCCCCCNCc2cc(OC)cc3ccccc23)c2ccccc2c1.CS(=O)(=O)O = 57%
• O=C(N[C@H]1CCN(Cc2ccc(OCCCN3CCCCC3)cc2)C1)c1ccc2ccccc2c1 = 8%
• COc1cc2c(cc1OC)CN(CCCCc1ccc(NC(=O)c3cc(Cl)cc(Cl)c3)cc1)CC2 = 21%
• Cl.O=C(CCCCCCc1ccccc1)Nc1ccc2nc3c(c(NCc4ccccc4)c2c1)CCCC3 = 19%
• CCc1cn2c3c(cc(C(=O)N[C@@H](Cc4ccccc4)[C@H](O)CNCc4ccc(C)cc4)cc13)N(C)S(=O)(=O)CC2.O=CO = 0%

Now for a further molecule.
Q. Write Inhibition of "COc1ccc(-c2nc3c(N)nc(N)nc3nc2C(C)C)cc1" ; system used: HepG2
A. 71%

---

- System: Plasmodium falciparum
- test description: GSK_TCMDC: Inhibition of Plasmodium falciparum Dd2 in whole red blood cells, using parasite LDH activity as an index of growth. Test compounds present at 2uM
- Type: functional
Please note: Condition met applies when Inhibition is 80% or greater, and Condition not met applies otherwise.

Q. Decide: Inhibition of "Cc1cc(Nc2ncc(Cl)c(Nc3ccccc3C(N)=O)n2)n[nH]1" >= 80%?
A. Condition met

Q. For this molecule, is measured Inhibition 80% or higher? "CN1C(=O)C(=NN=C(S)N2CCOCC2)c2ccccc21"
A. Condition not met

Q. Dear colleague, could you confirm whether "COc1ccc(NC(=O)Nc2ccc(-c3ccncc3)c(C(F)(F)F)c2)cc1N1CCN(C)CC1" has Inhibition at or above 80%?
A. Condition not met

Q. # bool: Inhibition of "O=C(Nc1cccc(CN2CCCN(Cc3ncc[nH]3)CC2)c1)c1ccc2ccccc2c1.O=C(O)C(F)(F)F" >= 80%
A. Condition not met

Q. Does "O=C(Nc1ccc(C(F)(F)F)cc1)c1ccc(NCCCN2CCCCCC2)c([N+](=O)[O-])c1" have a reported Inhibition of at least 80%?
A. Condition met

Q. Is Inhibition at least 80%? Consider CCC(C)NCc1c(O)ccc2c(CNC(C)CC)c(O)ccc12.Cl (centres undefined)
A. Condition not met

Q. Kindly determine if Inhibition recorded for "COC(=O)c1cc2cccc(NC[C@@H](C)NC[C@H](O)c3cccc(Cl)c3)c2[nH]1" is above or exactly 80%.
A. Condition met

Q. Entry "O=C(/C=C/c1ccc(Cl)c(Cl)c1)NCCCCCCN1CCCN(C(=O)Nc2cccc(Cl)c2)CC1" : is its Inhibition no less than 80%?
A. Condition not met

Q. Does the molecule "CN1CCCc2cc(NC(=O)c3cc(-c4ccc(Cl)cc4)cs3)ccc2C1.O=C(O)C(F)(F)F" have recorded Inhibition that is 80% or more?
A. Condition not met

Q. Does "CCCCCCN1CCC(NCc2ccc(Cl)cc2)CC1.O=C(O)C(F)(F)F" have a reported Inhibition of at least 80%?
A. Condition not met

Q. Check this molecule for Inhibition at or above 80%: "Cc1nnc2c(NC(=O)/C=C/c3ccc(OC(F)(F)F)cc3)cc3cc(Cl)ccc3n12"
A. Condition met

Q. # check: Inhibition of "CCCN(CCC)CCCNc1ccc(C(=O)Nc2ccc(C)c(F)c2)cc1[N+](=O)[O-]" is greater than or equal to 80%
A. Condition met

---

- Test system: Plasmodium falciparum
- test description: GSK_TCMDC: Inhibition of Plasmodium falciparum Dd2 in whole red blood cells, using parasite LDH activity as an index of growth. Test compounds present at 2uM
- Assay type: functional
Each entry falls into one class according to its Inhibition; the ranges are bucket A: < 50%; bucket B: ≥ 50% and < 80%; bucket C: ≥ 80%

Example results:
• COc1ccc2nccc(C(=O)NC3CCC(CCN4CCc5cc(C#N)ccc5C4)CC3)c2c1.Cl (centres undefined) = bucket A
• CCCCN1CC[C@@H](CCC(O)c2ccnc3ccc(OCCC(C)C)cc23)[C@@H](CC)C1.O=C(O)C(=O)O (some centres undefined) = bucket C
• NS(=O)(=O)NCCCN1CCN(c2ccccc2)CC1 = bucket B
• CCNC(C)(C)CN(Cc1ccc(-c2ccc(C(F)(F)F)cc2)cc1)C(=O)Cn1c(SCc2ccc(F)cc2)nc(=O)c2c1CCC2.O=C(O)C(O)C(O)C(=O)O = bucket C
• Cc1c2ccc(N(C)c3ccnc(Nc4ccc5c(c4)nc(NC(C)C)n5C)n3)cc2nn1C.Cl = bucket C
• OC(CNC1CCCCC1)Cn1c2ccc(Br)cc2c2cc(Br)ccc21 (centres undefined) = bucket C
• CNCCNCc1cccc(-c2cccc(-c3nc4cc(F)ccc4[nH]3)c2)c1.O=C(O)C(F)(F)F = bucket A
• CCOC(=O)c1ccc(NC(=O)NC2CCN(CCCCCNC(=O)/C=C/c3ccc(Cl)c(Cl)c3)C2)cc1 (centres undefined) = bucket A
• Br.CC1(C)NC(=N)NC(=N)N1OCC=Cc1ccccc1 = bucket C
• CCC(=O)Nc1cc(=O)[nH]c2nc(-c3ccc(Cl)cc3)nn12 = bucket B

Q. # bin label for "COc1cccc(N(CCCN2C(=O)c3cccc4cccc(c34)C2=O)C(=O)c2ccccc2C)c1"
A. bucket B

Q. Each compound maps to one class by Inhibition. Which class for "Cc1cc(NCc2ccc(F)cc2)nc2cc(O)ccc12" ?
A. bucket C

Q. # bin label for "NC(=O)Nc1ccc2c(Nc3ccc(OCc4ccccc4)cc3)ncnc2c1"
A. bucket A

Q. Category of "Cc1[nH]c(C)c(-c2ccc(-c3ccccc3C(F)(F)F)nc2)c(=O)c1Br" , please.
A. bucket C

Q. Which of the defined bands does the recorded Inhibition of "Cc1[nH]c2ccc(C#N)cc2c(=O)c1Br" sit within?
A. bucket B

Q. State the class of the compound shown: "Br.CCCCCCn1c2c(c(=N)c3c1CCC3)CCC2"
A. bucket C

Q. Which class does "COc1ccc(NC(=O)CCNc2cc(C)nc(NCCc3ccc(F)cc3)n2)cc1.O=C(O)C(F)(F)F" fall in?
A. bucket A

Q. Exam item: assign "O=C(N[C@H]1CCN(CCc2ccc(O[C@H]3CCNC3)c(Br)c2)C1)c1ccc(Cl)c(Cl)c1.O=C(O)C(F)(F)F" to the correct category.
A. bucket A

---

- Tested on: HepG2
- test description: GSK_TCMDC: Percent inhibition of human HepG2 cell line. Test compounds present at 10uM.
- Assay type: functional
Reported Inhibition values follow for various compounds
Record the value in %, omitting the unit from your answer.

These solved cases illustrate the format of a correct answer.
• CCn1ncc2c(N3CCCC3=O)cc(C(=O)N[C@@H](Cc3ccccc3)[C@H](O)CNC(C)(C)c3cccc(C(F)(F)F)c3)cc21 = 10
• CC(C)C[C@@H](NC(=O)NC1CCC(CCN2C3CCC2CC(OC(=O)C(CO)c2ccccc2)C3)CC1)C(O)(c1ccccc1)c1ccccc1 (stereo partly drawn) = 21
• O=C(O)C(F)(F)F.O=C1OC2(CCN(Cc3cccc(-c4ncc[nH]4)c3)CC2)CN1CCNCc1ccccc1 = 0
• COc1ccc(CCN(C)CCCN2CCC(NC(=O)c3cccc4c(=O)c5ccccc5[nH]c34)CC2)cc1OC.O=C(O)C(=O)O = 19
• O=C(C=Cc1ccc(Cl)c(Cl)c1)NCCCCCN1CCCC(CCCNS(=O)(=O)c2cccc3cccnc23)C1 (stereo not drawn) = 37
• COc1ccc2c(c1)c(C1CCN(CCCCNC(=O)c3ccc(-c4ccc(C(F)(F)F)cc4)cc3)CC1)cn2C(C)C = 26

Q. Tell us which Inhibition value is on record for "Cc1cccc(CNc2ncc(C)c(NCCC(=O)Nc3ccccc3)n2)c1.O=C(O)C(F)(F)F"
A. 18

Q. Provide only the value of recorded Inhibition for "O=C(CCc1cccnc1)Nc1ccc(-c2cccc(-c3nc4cc(F)ccc4[nH]3)c2)cc1"
A. 67

Q. Kindly indicate its recorded Inhibition. Item: "Cc1ccc(-c2nc(N3CCN(C(=O)c4ccco4)CC3)c3ccc(Cl)cc3n2)cc1"
A. 17

Q. Entry "CCOc1cccc2nc(NCCCNCc3ccc(Cl)c(Cl)c3)cc(NCCCNCc3ccc(Cl)c(Cl)c3)c12" needs its Inhibition filled in; supply it.
A. 96

Q. Determine its reported Inhibition: "CCCCc1ccc(-c2ccc(-c3c(C)[nH]c(C)c(Br)c3=O)cn2)cc1.Cl"
A. 0

Q. # return recorded Inhibition for input "c1ccn2c(-c3ncnc(NCc4ccc5c(c4)CCO5)n3)cnc2c1"
A. 12
